Test system: c-Myc
Experiment: BRD4 human c-Myc ELISA assay in 22RV-1 cells
Assay type: cell-based
Conditions: 22Rv1, 18 hours
Method: 6. BRD4 Human c-Myc ELISA Assay Protocol 22RV-1 cells were seeded at 30,000 cells/well at a volume of 75 μL/well in RPMI with 10% FBS media in 96-well plates and grown overnight at 37° C. Cells were dosed with compounds at 4× concentration diluted in 0.4% DMSO; compounds were serially diluted 1:3 for 8-point dose curve. […] Data was analyzed and plotted using GraphPad Prism software.
pIC50: −log10 of the molar value.
metric: pIC50

query: Returns the measured pIC50 for the input molecule. Input: Cc1sc2c(c1C)C(c1ccc(Cl)cc1)=NC(CC(=O)NCCCOCCCOc1ccc3ncc(-n4ccc(=O)[nH]c4=O)cc3c1)c1nnc(C)n1-2 (stereo not shown) [PROTAC-1]
result: ≤ 7.00

----------
Kindly state Dmax for each of the entries shown.
target: estrogen receptor-alpha (ERα) (Homo sapiens (Human)); test: Estrogen receptor-alpha (ERα) degradation assay in T47D cells; assay type: cell-based; conditions: % degraded, 5 day incubation, read-out: ER Degradation Dmax

query: // fetch estrogen receptor-alpha (ERα) (Homo sapiens (Human)) Dmax for O=C1CCC(N2CC(Oc3cccc(C4CCN(CCCOc5ccc([C@H]6c7ccc(O)cc7CC[C@H]6c6ccccc6)cc5)CC4)c3)=CC2=O)C(=O)N1 (mixture of isomers)
result: ≤ 50%

query: Query Dmax on estrogen receptor-alpha (ERα) (Homo sapiens (Human)) for CCN(C(=O)c1ccc(N2CCN(CCCCCOc3ccc([C@@H]4c5ccc(O)cc5CC[C@@H]4c4ccccc4)cc3)CC2)cc1OC)C1CCC(=O)NC1=O (mixture of isomers)
result: ≤ 50%

query: Give recorded Dmax with estrogen receptor-alpha (ERα) (Homo sapiens (Human)) for the following compound: O=C1CCC(N2CC(Oc3cccc(C4CCN(CCCOc5ccc([C@@H]6c7ccc(O)cc7CC[C@@H]6c6ccccc6)cc5)CC4)c3)=CC2=O)C(=O)N1 (some centres unmarked)
result: ≤ 50%

query: Provide value of Dmax for this record tested with estrogen receptor-alpha (ERα) (Homo sapiens (Human)): O=C1CCC(N2CC(Oc3cccc(C4CCN(CCCCOc5ccc([C@H]6c7ccc(O)cc7CC[C@H]6c6ccccc6)cc5)CC4)c3)=CC2=O)C(=O)N1 (mixture of isomers)
result: ≤ 50%

query: Reported Dmax for estrogen receptor-alpha (ERα) (Homo sapiens (Human)), given O=C1CCC(N2CC(Oc3cccc(C4CCN(CCCCOc5ccc([C@@H]6c7ccc(O)cc7CC[C@@H]6c6ccccc6)cc5)CC4)c3)=CC2=O)C(=O)N1 (mixture of isomers) ?
result: ≤ 50%

----------
biological target: estrogen receptor-alpha (ERα) (Homo sapiens (Human), UniProt P03372); test: Estrogen receptor-alpha (ERα) degradation assay in MCF7 cells (In-Cell Western / western blot); type: cell-based; conditions: % degraded, 5 day incubation, read-out: ER Degradation Dmax
Sequence (P03372 whole entry): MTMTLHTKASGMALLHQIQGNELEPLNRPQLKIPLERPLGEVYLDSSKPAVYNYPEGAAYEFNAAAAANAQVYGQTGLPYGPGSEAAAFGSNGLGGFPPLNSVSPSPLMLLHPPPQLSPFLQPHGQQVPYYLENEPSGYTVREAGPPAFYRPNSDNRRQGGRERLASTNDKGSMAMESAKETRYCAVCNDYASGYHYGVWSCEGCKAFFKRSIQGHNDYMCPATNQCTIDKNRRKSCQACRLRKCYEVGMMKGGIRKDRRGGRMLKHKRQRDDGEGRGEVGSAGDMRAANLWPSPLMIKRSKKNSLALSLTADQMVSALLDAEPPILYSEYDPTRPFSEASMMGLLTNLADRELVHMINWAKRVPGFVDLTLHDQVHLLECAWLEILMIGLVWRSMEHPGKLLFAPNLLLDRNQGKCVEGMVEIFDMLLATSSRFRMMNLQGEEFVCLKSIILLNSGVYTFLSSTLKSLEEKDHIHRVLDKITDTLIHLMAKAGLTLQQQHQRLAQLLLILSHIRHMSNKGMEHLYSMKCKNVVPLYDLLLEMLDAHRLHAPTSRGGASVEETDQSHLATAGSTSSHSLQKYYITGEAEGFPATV
Assign Dmax to each entry below.

query: What value of measured Dmax is listed for O=C1CCC(n2cnc(N3CCN(CCCCCOc4ccc([C@@H]5c6ccc(O)cc6CC[C@@H]5c5ccccc5)cc4)CC3)cc2=O)C(=O)N1 (mixture of isomers) ?
result: 50 to 75%

query: Consider the compound shown here: O=C1CCC(n2cc(-c3ccc(N4CCN(CCCOc5ccc([C@@H]6c7ccc(O)cc7CC[C@@H]6c6ccccc6)cc5)CC4)cc3)cn2)C(=O)N1 (mixture of isomers) What is its recorded Dmax?
result: 50 to 75%

query: Entry under review: O=C1CCC(n2ncc(N3CCN(CC4CCN(c5ccc([C@@H]6c7ccc(O)cc7CC[C@@H]6c6ccccc6)cc5)CC4)CC3)cc2=O)C(=O)N1 (stereo partly shown) . Reported Dmax?
result: > 75%

query: Using the record for O=C1CCC(NC(=O)c2ccc(N3CCN(CCCCCOc4ccc([C@@H]5c6ccc(O)cc6CC[C@@H]5c5ccccc5)cc4)CC3)cn2)C(=O)N1 (mixture of isomers) , report its Dmax.
result: > 75%

query: Would you mind telling me what Dmax value was observed for O=C1CCC(n2cc(-c3ccc(N4CCN(CCCOc5ccc([C@@H]6c7ccc(O)cc7CC[C@@H]6c6ccccc6)cc5)CC4)nc3)cn2)C(=O)N1 (mixture of isomers) ?
result: ≤ 50%

query: I have this compound here, CN(C(=O)c1ccc(N2CCN(CCCCCOc3ccc([C@@H]4c5ccc(O)cc5CC[C@@H]4c4ccccc4)cc3)CC2)cc1)C1CCC(=O)NC1=O (mixture of isomers) , and I need its recorded Dmax.
result: > 75%

query: Any idea what its Dmax is? The compound is O=C1CCC(N2CC(c3ccc(N4CCN(CC5CCN(c6ccc([C@@H]7c8ccc(O)cc8CC[C@@H]7c7ccccc7)cc6)CC5)CC4)cc3)=CC2=O)C(=O)N1 (stereo partly shown)
result: > 75%

query: // returns reported Dmax for input O=C1CCC(n2ncc(Oc3ccc(CCCCOc4ccc([C@@H]5c6ccc(O)cc6CC[C@@H]5c5ccc(F)cc5)cc4)nc3)cc2=O)C(=O)N1 (mixture of isomers)
result: ≤ 50%

query: I am curious: what Dmax value has been reported for O=C1CCC(n2ncc(N3CCN(CCCCCOc4ccc([C@@H]5c6ccc(O)cc6CC[C@@H]5c5ccccc5)cc4)CC3)cc2=O)C(=O)N1 (mixture of isomers) ?
result: 50 to 75%

query: Recorded Dmax of O=C1CCC(n2ncc(Oc3ccc(CCCCCOc4ccc([C@@H]5c6ccc(O)cc6CC[C@@H]5c5ccc(F)cc5)cc4)nc3)cc2=O)C(=O)N1 (mixture of isomers) , please.
result: ≤ 50%
